assay.info: compounds altering HSF1 focus formation in cells – imaging, Selleck Cancer Library (AID 1347162)
conditions: human cells, HSF1 nuclear foci imaging, at 10 µM; measured here: HSF1 foci SSMD mean
// assign true (1) if SSMD falls strictly below -10, else false (0) (ties count as false (0))

Strictly below -10 in SSMD? Cc1cc2c(C(C)C)c(O)c(O)c(C=O)c2c(O)c1-c1c(C)cc2c(C(C)C)c(O)c(O)c(C=O)c2c1O
true (1)

Please determine if COc1cc2c(N3CCN(C(=O)Nc4ccc(OC(C)C)cc4)CC3)ncnc2cc1OCCCN1CCCCC1 is below -10 in terms of SSMD.
false (0)

In plain terms, does O=NN(CCCl)C(=O)NC1CCCCC1 come in under -10 for SSMD?
false (0)

More entries:
State whether -10 exceeds SSMD recorded for CC(=O)[C@]1(O)Cc2c(O)c3c(c(O)c2[C@@H](O[C@H]2C[C@H](N)[C@H](O)[C@H](C)O2)C1)C(=O)c1ccccc1C3=O .
true (1)

Please determine if CC(C)(C#N)c1cc(Cn2cncn2)cc(C(C)(C)C#N)c1 is below -10 in terms of SSMD.
false (0)

###

assay.info: blockers of cytochrome c efflux from mitochondria – biochemical, purified mitochondria (AID 1603);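 note: mouse liver mitochondria challenged with calcium chloride; signal normalized to the plate average as 100%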
conditions: stronger effect = lower value
Threshold check on cytochrome c release ratio: strictly below 1 is met; on or above 1 is not met.

hey, is cytochrome c release ratio for Cc1onc(-c2ccccc2Cl)c1C(=O)N[C@@H]1C(=O)N2[C@@H]1SC(C)(C)[C@@H]2C(=O)O lower than 1 or not?
not met

Is 1 strictly greater than the molecule's reported cytochrome c release ratio? molecule: NC(=O)N/N=C/c1ccc([N+](=O)[O-])o1
not met

Next:
Report whether reported cytochrome c release ratio is lower than 1 (strictly) for Oc1c(I)cc(I)c2cccnc12
not met

Criterion: cytochrome c release ratio strictly below 1. Is it met by CCO/C([O-])=N/c1c[n+](N2CCOCC2)no1 ?
met

Lab note: cytochrome c release ratio threshold 1. Does this molecule come in strictly under it? Nc1cc(-c2ccncc2)c[nH]c1=O
met

###

Task for the reader: assign each of the following compounds its reported inclusion score.
assay.info: GFP-Q80 aggregate reduction, neuronal-like cells, cell-based, NGF-treated PC12, GFPQ80 (AID 1614);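 note: lower means fewer inclusions and 0 means no inclusions at all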
conditions: PC12 NGF-treated GFP-polyQ80 inclusion reduction
One number for each entry.

May I ask what inclusion score has been recorded for O=C(O)CCCCCCCC(=O)O ?
2

Would you mind telling me what inclusion score value was observed for OC(CCN1CCCCC1)(c1ccccc1)c1ccccc1 ?
2

What value of measured inclusion score is listed for CC(C)(Sc1cc(C(C)(C)C)c(O)c(C(C)(C)C)c1)Sc1cc(C(C)(C)C)c(O)c(C(C)(C)C)c1 ?
2

I'd like to know its inclusion score. The compound in question is COc1ccc(CN(CCN(C)C)c2ccccn2)cc1
2

Fill in: inclusion score of Nc1ccc(C(=O)NCC(=O)O)cc1 is ___
2

// input: 4 compounds below; output: inclusion score for each
1. NC(=O)c1ccc([N+](=O)[O-])cc1Cl
2. CN(C)CCOC(=O)C(c1ccccc1)C1(O)CCCC1 (stereo not drawn)
3. Cn1cnc2c1c(=O)[nH]c(=O)n2C
4. COc1ccc2c(c1)c(CC(=O)OCC(=O)O)c(C)n2C(=O)c1ccc(Cl)cc1

[2, 2, 1.5, 2]

###

Please go through the items and note down their inhibition.
System: Hepatitis C virus NS3 helicase
assay.info: blockers of NS3h binding to DNA – biochemical, fluorescence polarization, NIH Clinical Collection, primary screen (AID 743270)
conditions: NS3 helicase binding to Cy5-dT15 DNA, stronger effect = higher value, concentration not given here
Answers are plain numbers, in %.

Example compounds with recorded inhibition:
Bench note: what inhibition did Brc1c(NC2=NCCN2)ccc2nccnc12 show?
-5.91

Need inhibition, item N#Cc1ccc(C(c2ccc(C#N)cc2)n2cncn2)cc1
2.77

State the recorded inhibition for this entry: CC(C)c1ccc2oc3nc(N)c(C(=O)O)cc3c(=O)c2c1
2.77

Given NC(=O)OCC(COC(N)=O)c1ccccc1 , state its recorded inhibition.
-2.77

Sample CCN1CCC[C@H]1CNC(=O)c1c(O)c(Cl)cc(Cl)c1OC — what was its inhibition?
1.19

Please look at the items below and tell me inhibition for each one, in order.
1. CC(C)(C(=O)c1cccnc1)c1cccnc1
2. O=C1CCc2ccc(OCCCCN3CCN(c4cccc(Cl)c4Cl)CC3)cc2N1
3. CCc1oc2ccccc2c1C(=O)c1cc(Br)c(O)c(Br)c1
4. C[C@@H]1CN(CCCn2c3ccccc3c3ccccc32)C[C@H](C)N1
5. C[C@H](NC(CCc1ccccc1)C(=O)O)C(=O)N1CCC[C@H]1C(=O)O (stereo partly drawn)
6. CCOc1cc(N)c(Cl)cc1C(=O)NCC1CN(Cc2ccc(F)cc2)CCO1 (stereo not drawn)
7. OCc1cccnc1

1: 1.36; 2: 1.98; 3: -2.84; 4: -6.33; 5: 1.19; 6: 1.19; 7: -1.09

Batch request: inhibition per item, same order as input.
1. CN1CCC(=C2c3ccccc3C=Cc3ccccc32)CC1
2. O=C(O)CCNC(=O)c1ccc(N=Nc2ccc(O)c(C(=O)O)c2)cc1

-2.84
-2.84

For every item below, please supply its inhibition.
1. O=C1Nc2ccc(Cl)cc2[C@@](C#CC2CC2)(C(F)(F)F)O1
2. Nc1nc(N)nc(-c2cc(Cl)ccc2Cl)n1

1: 5.15; 2: -1.19

Fill in inhibition for each of the 2 compounds listed.
1. COC(=O)CCc1ccc(OCC(O)CNC(C)C)cc1 (stereo not drawn)
2. COc1ccc(C(=O)NCc2ccc(OCCN(C)C)cc2)cc1OC

1. -1.98
2. 1.19

Hi, could you look up inhibition for each item in my list?
1. CCC(=O)O[C@]1(C(=O)SCF)[C@H](C)C[C@H]2[C@@H]3C[C@H](F)C4=CC(=O)C=C[C@]4(C)[C@@]3(F)[C@@H](O)C[C@@]21C
2. NC1CCN(c2nc3c(cc2F)c(=O)c(C(=O)O)cn3-c2ccc(F)cc2F)C1 (stereo not drawn)
3. C#C[C@]1(O)CC[C@H]2[C@@H]3CCc4cc(OC)ccc4[C@H]3CC[C@@]21C
4. CCC1=C(C)CN(C(=O)NCCc2ccc(S(=O)(=O)NC(=O)NC3CCC(C)CC3)cc2)C1=O (stereo not drawn)
5. CC(=O)[C@]1(O)Cc2c(O)c3c(c(O)c2[C@@H](O[C@H]2C[C@H](N)[C@H](O)[C@H](C)O2)C1)C(=O)c1ccccc1C3=O

5.94
-5.15
3.56
-1.09
0.4

###

assay.info: restoration of touch response, mutant HTT neurons – whole organism, C. elegans mechanosensory neurons, N-terminal huntingtin (AID 1599)
conditions: C. elegans polyQ-huntingtin mechanosensory neurons, stronger effect = higher value
Measured potencies and affinities stand elsewhere.
measured.metric: rescue above control
Give bare numbers.

What value of rescue above control has been recorded for this entry: CC(CN(C)C)CN1c2ccccc2CCc2ccccc21 (configuration not stated)
-11.6

Please report the recorded rescue above control for C[N+]1(CCCCC[N+]2(C)CCCC2)CCCC1 .
1.54

Data request, read-out rescue above control, for O=C(O)CCCCCCCC(=O)O
10.4

Name the recorded rescue above control for CCN(CC)C(=O)N1CCN(C)CC1 .
-3.55

Field request: rescue above control | item: CCOC(=O)[C@H](CCc1ccccc1)N[C@@H](C)C(=O)N1CCC[C@H]1C(=O)O
6.04

Can you give me rescue above control for all of these, one by one?
1. Cc1ccccc1N1C(=O)c2cc(S(N)(=O)=O)c(Cl)cc2NC1C (configuration not stated)
2. CCOc1ccc(NC(C)=O)cc1
3. CC(=O)Oc1ccc(C(c2ccc(OC(C)=O)cc2)c2ccccn2)cc1
4. CCN1CCCC(OC(=O)C(c2ccccc2)c2ccccc2)C1 (configuration not stated)
5. CCN(CC)CCOC(=O)C(c1ccccc1)c1ccccc1
6. C/C=C(/C(=C/C)c1ccc(O)cc1)c1ccc(O)cc1
7. Clc1ccc(C(c2ccccc2Cl)C(Cl)Cl)cc1 (configuration not stated)

1. 6.73
2. -2.44
3. 5.96
4. -11.5
5. 8.76
6. -4.61
7. 0

###

assay.info: drug combination growth inhibition, ovarian cancer – cell-based, oncology-focused library, rucaparib conditional, profiling panel (AID 1508598)
conditions: patient-derived ovarian cancer cells, CellTiter-Glo viability, 144 h; at 0.00488 µM; OCI-C5x cells; with rucaparib 10 µM; stronger effect = lower value; 100% = cells with rucaparib alone
measured.metric: viability (%)
Give bare numbers, in %.

Take a look at these entries with their results.
Given COC(=O)Nc1nc2ccc(C(=O)c3cccs3)cc2[nH]1 , state its recorded viability.
112

I am curious: what viability value has been reported for Cc1cc2c(C(C)C)c(O)c(O)c(C=O)c2c(O)c1-c1c(C)cc2c(C(C)C)c(O)c(O)c(C=O)c2c1O ?
119

Look up viability: CCC(C)n1ncn(-c2ccc(N3CCN(c4ccc(OC[C@H]5CO[C@](Cn6cncn6)(c6ccc(Cl)cc6Cl)O5)cc4)CC3)cc2)c1=O (stereo partly specified)
122

What value of viability has been reported for the following molecule? COc1cc2c(N3CCN(C(=O)Nc4ccc(OC(C)C)cc4)CC3)ncnc2cc1OCCCN1CCCCC1
112

Item under review: Cc1nc(-c2ccc(OCC(C)C)c(C#N)c2)sc1C(=O)O . Reported viability?
112

Each molecule below has a reported value. Please supply its viability.
1. O=NN(CCCl)C(=O)NC1CCCCC1
2. CCc1c2c(nc3ccc(OC(=O)N4CCC(N5CCCCC5)CC4)cc13)-c1cc3c(c(=O)n1C2)COC(=O)[C@]3(O)CC

1. 107
2. 107

Return reported viability values for all items listed beneath this line.
1. Cc1nc2ccc(CN(C)c3ccc(C(=O)N[C@@H](CCC(=O)O)C(=O)O)s3)cc2c(=O)[nH]1
2. COc1cc2c(Nc3ccc(Br)cc3F)ncnc2cc1OCC1CCN(C)CC1
3. O=c1c(O)c(-c2ccc(O)c(O)c2)oc2cc(O)cc(O)c12
4. CC(C)(C#N)c1cc(Cn2cncn2)cc(C(C)(C)C#N)c1

72.8
122
117
115
